System: MDA-MB-231
measurementDescription: Antiproliferative activity against human MDA-MB-231 cells after 48 hrs by SRB assay
Format: functional, cell-based
conditionsUsed: MDA-MB-231, 48 h
pIC50: −log10 of the molar value.
observable: pIC50

> print(dat)
                                   compound  qualifieroperator  recordedvalue
1  COc1cccc2c1C(=O)c1c(O)c3c(c(O)c1C2=O)C[C@@](O)(C(=O)CO)C[C@@H]3O[C@H]1C[C@H](N)[C@H](O)[C@H](C)O1 [DOXORUBICIN]                  =           5.74
2  CCC(=O)O/N=C1/[C@H]2O[C@]23[C@@]2(C)[C@H](CC[C@@]3(C)[C@@H]1c1ccoc1)[C@@]1(C)C=CC(=O)C(C)(C)[C@@H]1C[C@H]2OC(C)=O                  <           4.00
3  COc1ccc(C[C@@H](O)c2cc(OC)c(OC)c(OC)c2)cc1O [COMBRETASTATIN]                  =           5.64
